tested on: HBV; experiment: HBsAg and HBeAg secretion in HepG2.2.15 cells; assay type: cell-based; conditions: Hepatitis B virus, 72 h, incubated for 3 days, supernatant, CLIA ELISA, read-out: IC50 HBeAg
READOUT_KIND: pIC50
Entry type: numeric. Quantity: pIC50, the -log10 of concentration in molar units.

State measured pIC50 of the compound "COCCCOc1cc2c(cc1Cl)-c1cc(=O)c(C(=O)O)cn1[C@H](C(C)C)C2" with HBV.
8.15

----------
In this section we review reported IC50 values for a set of compounds.
test system: HBV; assay: HBsAg and HBeAg secretion in HepG2.2.15 cells; format: cell-based; settings: Hepatitis B virus, 72 h, incubated for 3 days, supernatant, CLIA ELISA, read-out: IC50 HBsAg
# unit: nM | format: bare number

Worked cases, answers included:
COc1cc(N2CCc3nc(-c4ncccn4)ncc3[C@H]2C)cc(F)c1F [MOL654]: 3
COc1cc2c(cc1OCCOCCOCCOCCOCCOCCOc1c(OC)cc(Cc3cnc(N)nc3N)cc1OC)C[C@@H](C(C)(C)C)n1cc(C(=O)O)c(=O)cc1-2 [HBX129653]: 1180
COc1cc(Cc2cnc(N)nc2N)cc(OC)c1OCCOCCOCCOCCOCCOCCOc1cc(N2CCc3nc(-c4ncccn4)ncc3[C@H]2C)cc(F)c1F [HBX129654]: 299

Report IC50, nothing else, for this compound: COCCCOc1cc2c(cc1Cl)-c1cc(=O)c(C(=O)O)cn1[C@H](C(C)C)C2 [MOL653]
3
